The reported numbers originate from the supplement of paper PMC10567573.

B1: MIA2 (parent)
chain: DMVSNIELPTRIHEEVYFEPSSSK

- Variants of: B1
- RUN_DESCRIPTION: protein stability index of a GFP-peptide fusion (GPS, HEK-293T) (PSI 1-6); higher = more stable;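 note: lentivirally expressed fusions sorted by FACS into six bins by GFP to DsRed ratio, PSI derived from sequencing read proportions per bin multiplied by bin number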
- RECORDED_CONDITIONS: c terminus: a fixed tail appended
MEASURED_PROPERTY: protein stability index
Answer as a number with no unit attached.

Solved cases below.
S4H: 4.29
V3H: 3.56
N5C: 4.04
I6E: 5.27
S22V: 3.95
T10L: 4.11

### Prompt Using the record for L8G , report its protein stability index.
### Response 4.74
